Just for reference, PubChem BioAssay AID2284385 is where these values come from.

test.target: human Peroxisome proliferator-activated Receptor alpha (PPARa), PPARA (gene 5465) (UniProt Q07869)
Sequence (Q07869 whole entry, looked up): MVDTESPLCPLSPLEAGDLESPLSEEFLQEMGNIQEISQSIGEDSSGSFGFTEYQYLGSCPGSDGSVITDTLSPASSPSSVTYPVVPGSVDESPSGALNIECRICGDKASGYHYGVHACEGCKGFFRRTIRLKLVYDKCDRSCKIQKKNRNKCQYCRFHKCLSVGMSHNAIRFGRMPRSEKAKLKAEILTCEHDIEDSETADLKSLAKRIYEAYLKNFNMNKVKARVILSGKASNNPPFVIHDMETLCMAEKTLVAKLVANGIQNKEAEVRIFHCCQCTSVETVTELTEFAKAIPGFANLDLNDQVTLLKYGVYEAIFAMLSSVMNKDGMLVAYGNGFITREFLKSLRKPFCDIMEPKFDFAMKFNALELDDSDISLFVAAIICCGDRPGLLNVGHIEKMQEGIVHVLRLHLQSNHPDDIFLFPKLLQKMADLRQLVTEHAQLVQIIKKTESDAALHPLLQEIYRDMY
procedure.text: ERF_TW_NR_COA_hPPARA: Eurofins (ERF) Nuclear Receptor (NR) Functional Coactivator Assay for human Peroxisome proliferator-activated Receptor alpha (PPARa) Agonism & Antagonism, conducted at Taiwan lab site
Active and inactive are the calls of the source. The calls were made as follows: active = hit-call score of the fitted dose curve at least 0.9, where 1 is the maximum; inactive = score below 0.9.
Hi! Could you answer with just one of these? True (active), False (inactive)

Worked set:
CN(CCOc1ccc(CC2SC(=O)NC2=O)cc1)c1ccccn1 (stereo not given); False
CC(C)(Oc1ccc(C(=O)c2ccc(Cl)cc2)cc1)C(=O)O; True
O=C(O)CCC(F)(F)C(F)(F)C(F)(F)F; False
O=C(Cl)C(F)(F)C(F)(F)C(F)(F)C(F)(F)C(F)(F)C(F)(F)F; True

Here is another molecule to look at.
Please indicate how the test categorized "O=C(O)C(F)(F)C(F)(F)C(F)(F)C(F)(F)C(F)(F)C(F)(F)C(F)F" .
True
